Known protein stability index of a selection of sequences
Tested on: Saccharomyces cerevisiae
Assay: protein stability index of tFT-peptide fusion (C-terminal peptide) (PSI (0-1 scale)); higher = more stable (slower turnover);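 also: PSI is a weighted mean of sequencing reads over stability bins, variants kept only with over 10 reads, mCherry proximal and sfGFP distal, peptide attached via GGGS linker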
Conditions: genetic background: wild type; temperature: 30 C
Simply state the number, no unit and no words.

In [3]: df
Out[3]:
   biopolymer_sequence                  measure  recorded_value
0         VLVSYAIVILYL  protein stability index           0.149
1         LSRHLILFIVIR  protein stability index           0.174
2         LPLCGLLLFLFF  protein stability index            0.42
3         YVDSGLTLIHLA  protein stability index           0.181

# ---- query sequence ----
Reported protein stability index, sequence `KEKKKTKHNKIG` : ____
0.155

---

Test system: Saccharomyces cerevisiae
Assay: protein stability index of tFT-peptide fusion (C-terminal peptide) (PSI (0-1 scale)); higher = more stable (slower turnover)
Conditions: genetic background: das1 deletion; temperature: 30 C
Returns met if the recorded protein stability index is greater than or equal to 0.5, and not met otherwise.

Answered cases to consult:
In [3]: df
Out[3]:
   biopolymer_sequence  assigned_label
0         VFLFSLCIRLSR         not met
1         FCLMLWGAVLFL         not met

# check: protein stability index of `FVSVAGFIVVVV` is greater than or equal to 0.5
not met

Another sequence to check: `FFLFLVCLFFFS`
not met

Same for `RRAVGLANFTIK`
met

Please answer likewise for `WFFTDIVMLVRV`
not met

Then `LFWCCVGLSVWR` ?
not met

Subsequent entry: `FPFFLLAAPFLA`
met

Then `KALSSSYFGTRL` ?
met

Try `PVWLSFHFFLCA` next.
not met

`ILHRRCGLLLQI` ?
not met

`ICWVSLYFSMLV` ?
not met

Do the same for `ASSFYVDLVLVS` please
not met

Try `WVYVFVSLFFVV` next.
not met

Then `PPPPHSAPLFLS` ?
met

Here is the next sequence: `VLVVLVVCRRAE`
not met

---

System: Saccharomyces cerevisiae
Test: protein stability index of tFT-peptide fusion (C-terminal peptide) (PSI (0-1 scale)); higher = more stable (slower turnover)
Conditions: genetic background: wild type; temperature: 30 C
Known protein stability index of a selection of sequences
// no unit string in output, number only

Below are worked cases with known answers.
>>> print(df.to_string())
   biopolymer_sequence  recorded_value
0         IECKKIDKKIKE           0.688
1         AFPLPPPPPPKP           0.708
2         SCDLRALALLGG           0.707

Record request: protein stability index value, item `SSRAGVRRPHSR`
0.685

One more sequence: `LKPMSRKSLRSM`
0.715

Try this sequence too: `EELGGGTRNYEG`
0.693

Try this sequence too: `SPARLHLPPFSP`
0.717

`WWPDILWLNTGW` , same question.
0.701

---

System: Saccharomyces cerevisiae
Experiment: protein stability index of tFT-peptide fusion (C-terminal peptide) (PSI (0-1 scale)); higher = more stable (slower turnover)
Conditions: genetic background: wild type; temperature: 30 C
# protein stability index >= 0.7 gives class 1, anything below gives class 0

// known answers, use as guide
>>> print(df.to_string())
   biopolymer_sequence  assigned_label
0         RLGVTVPLSGTV         class 0
1         SGHFGTATTLCF         class 1

As a next step, examine the sequence that follows.
Can `KVRGMKIKGKLD` be said to have protein stability index at or above 0.7?
class 0

Provenance of the data: the supplement of paper PMC10724198
